src = the supplement of paper PMC10307832

system: LU99A; assay: relative viability (nuclei count vs DMSO), 5 days (fraction); higher = more cells survive; details: first compound 0.04 µM
measured quantity: relative viability

[[record]]
molecule = "O=C(O)c1ccc(-c2c[nH]c3ncc(-c4ccccc4)cc23)cc1C1CCCC1 + Cc1nc(Nc2ncc(C(=O)Nc3c(C)cccc3Cl)s2)cc(N2CCN(CCO)CC2)n1 [Dasatinib] (partner 0.075 µM)"
measurement_target = "LU99A"
measured_quantity = "relative viability"
recorded_measurement = 0.599

[[record]]
molecule = "O=C(O)c1ccc(-c2c[nH]c3ncc(-c4ccccc4)cc23)cc1C1CCCC1 + CC1(C)CCC(c2ccc(Cl)cc2)=C(CN2CCN(c3ccc(C(=O)NS(=O)(=O)c4ccc(N[C@H](CCN5CCOCC5)CSc5ccccc5)c(S(=O)(=O)C(F)(F)F)c4)cc3)CC2)C1 [Navitoclax] (partner 0.5 µM)"
measurement_target = "LU99A"
measured_quantity = "relative viability"
recorded_measurement = 0.818

[[record]]
molecule = "O=C(O)c1ccc(-c2c[nH]c3ncc(-c4ccccc4)cc23)cc1C1CCCC1 + CS(=O)(=O)CCNCc1ccc(-c2ccc3ncnc(Nc4ccc(OCc5cccc(F)c5)c(Cl)c4)c3c2)o1 [Lapatinib] (partner 2 µM)"
measurement_target = "LU99A"
measured_quantity = "relative viability"
recorded_measurement = 0.972

[[record]]
molecule = "O=C(O)c1ccc(-c2c[nH]c3ncc(-c4ccccc4)cc23)cc1C1CCCC1 + Cc1cc(Nc2cc(N3CCN(C)CC3)nc(Sc3ccc(NC(=O)C4CC4)cc3)n2)n[nH]1 [Tozasertib] (partner 0.1 µM)"
measurement_target = "LU99A"
measured_quantity = "relative viability"
recorded_measurement = 0.268


====

Each entry below lists one item and its recorded relative viability value.
tested on: NCI-H1563; assay: relative viability (nuclei count vs DMSO), 5 days (fraction); higher = more cells survive; conditions: first compound 2.53 µM
measured quantity: relative viability

[[record]]
molecule = "C=C1C(=O)O[C@@H](CCCCCCCC)[C@@H]1C(=O)O [C-75] + C[C@]1(O)C[C@@H](c2nc(-c3ccc4ccc(-c5ccccc5)nc4c3)c3c(N)nccn32)C1 [Linsitinib] (partner 1 µM)"
measurement_target = "NCI-H1563"
recorded_measurement = 1.28

[[record]]
molecule = "C=C1C(=O)O[C@@H](CCCCCCCC)[C@@H]1C(=O)O [C-75] + C[C@@H](Oc1cc(-c2cnn(C3CCNCC3)c2)cnc1N)c1c(Cl)ccc(F)c1Cl [Crizotinib] (partner 1 µM)"
measurement_target = "NCI-H1563"
recorded_measurement = 0.826

[[record]]
molecule = "Oc1nc(-c2ccc(C(F)(F)F)cc2)nc2c1CSCC2 [XAV939] + N=C(N)NC(=N)NCCc1ccccc1 [Phenformin] (partner 250 µM)"
measurement_target = "NCI-H1563"
recorded_measurement = 0.636


====

tested on: NCI-H1437; test: relative viability (nuclei count vs DMSO), 5 days (fraction); higher = more cells survive; details: first compound 0.3162 µM
measured quantity: relative viability

[[record]]
molecule = "NC(=O)Nc1cc(-c2cccc(F)c2)sc1C(=O)N[C@H]1CCCNC1 [AZD7762] + COc1cccc2cc(-c3nc([C@H]4CC[C@H](C(=O)O)CC4)n4ncnc(N)c34)[nH]c12 [OSI-027] (partner 0.5 µM)"
measured_quantity = "relative viability"
recorded_measurement = 0.87

[[record]]
molecule = "NC(=O)Nc1cc(-c2cccc(F)c2)sc1C(=O)N[C@H]1CCCNC1 [AZD7762] + CCNC(=O)c1noc(-c2cc(C(C)C)c(O)cc2O)c1-c1ccc(CN2CCOCC2)cc1 [Luminespib] (partner 0.01 µM)"
measured_quantity = "relative viability"
recorded_measurement = 1.13

[[record]]
molecule = "NC(=O)Nc1cc(-c2cccc(F)c2)sc1C(=O)N[C@H]1CCCNC1 [AZD7762] + Nc1nc2[nH]cc(CCc3ccc(C(=O)N[C@@H](CCC(=O)O)C(=O)O)cc3)c2c(=O)[nH]1 [Pemetrexed] (partner 0.2 µM)"
measured_quantity = "relative viability"
recorded_measurement = 0.206

[[record]]
molecule = "NC(=O)Nc1cc(-c2cccc(F)c2)sc1C(=O)N[C@H]1CCCNC1 [AZD7762] + O=C(CCCCCCC(=O)Nc1ccccc1)NO [Vorinostat] (partner 1 µM)"
measured_quantity = "relative viability"
recorded_measurement = 0.639

[[record]]
molecule = "NC(=O)Nc1cc(-c2cccc(F)c2)sc1C(=O)N[C@H]1CCCNC1 [AZD7762] + Cc1cc(Nc2cc(N3CCN(C)CC3)nc(Sc3ccc(NC(=O)C4CC4)cc3)n2)n[nH]1 [Tozasertib] (partner 0.1 µM)"
measured_quantity = "relative viability"
recorded_measurement = 0.372


====

test system: NCI-H520; assay: relative viability (nuclei count vs DMSO), 5 days (fraction); higher = more cells survive; settings: first compound 1 µM
measured quantity: relative viability

[[record]]
molecule = "NC(=O)Nc1cc(-c2cccc(F)c2)sc1C(=O)N[C@H]1CCCNC1 [AZD7762] + COc1cc2c(Oc3ccc(NC(=O)C4(C(=O)Nc5ccc(F)cc5)CC4)cc3F)ccnc2cc1OCCCN1CCOCC1 [Foretinib] (partner 0.25 µM)"
measured_quantity = "relative viability"
recorded_measurement = 0.351

[[record]]
molecule = "NC(=O)Nc1cc(-c2cccc(F)c2)sc1C(=O)N[C@H]1CCCNC1 [AZD7762] + Cc1nc(Nc2ncc(C(=O)Nc3c(C)cccc3Cl)s2)cc(N2CCN(CCO)CC2)n1 [Dasatinib] (partner 0.075 µM)"
measured_quantity = "relative viability"
recorded_measurement = 0.189

[[record]]
molecule = "NC(=O)Nc1cc(-c2cccc(F)c2)sc1C(=O)N[C@H]1CCCNC1 [AZD7762] + Cc1nc(NC(=O)N2CCC[C@H]2C(N)=O)sc1-c1ccnc(C(C)(C)C(F)(F)F)c1 [Alpelisib] (partner 2 µM)"
measured_quantity = "relative viability"
recorded_measurement = 0.371

[[record]]
molecule = "NC(=O)Nc1cc(-c2cccc(F)c2)sc1C(=O)N[C@H]1CCCNC1 [AZD7762] + CC(=O)c1c(C)c2cnc(Nc3ccc(N4CCNCC4)cn3)nc2n(C2CCCC2)c1=O [Palbociclib] (partner 0.5 µM)"
measured_quantity = "relative viability"
recorded_measurement = 0.189

[[record]]
molecule = "NC(=O)Nc1cc(-c2cccc(F)c2)sc1C(=O)N[C@H]1CCCNC1 [AZD7762] + Nc1ncn([C@H]2C[C@H](O)[C@@H](CO)O2)c(=O)n1 [Decitabine] (partner 2 µM)"
measured_quantity = "relative viability"
recorded_measurement = 0.246


====

test system: NCI-H1651; assay: relative viability (nuclei count vs DMSO), 5 days (fraction); higher = more cells survive; conditions: first compound 0.3162 µM
Note to self: use y only for relative viability readings below 0.5; a reading exactly at 0.5 still gets n.

[[record]]
compound = "NC(=O)Nc1cc(-c2cccc(F)c2)sc1C(=O)N[C@H]1CCCNC1 [AZD7762] + N=C(N)NC(=N)NCCc1ccccc1 [Phenformin] (partner 250 µM)"
cat = "y"

[[record]]
compound = "NC(=O)Nc1cc(-c2cccc(F)c2)sc1C(=O)N[C@H]1CCCNC1 [AZD7762] + Nc1ncn([C@H]2C[C@H](O)[C@@H](CO)O2)c(=O)n1 [Decitabine] (partner 2 µM)"
cat = "n"

[[record]]
compound = "NC(=O)Nc1cc(-c2cccc(F)c2)sc1C(=O)N[C@H]1CCCNC1 [AZD7762] + O=C(CCCCCCC(=O)Nc1ccccc1)NO [Vorinostat] (partner 1 µM)"
cat = "n"

[[record]]
compound = "NC(=O)Nc1cc(-c2cccc(F)c2)sc1C(=O)N[C@H]1CCCNC1 [AZD7762] + CC(=O)Nc1cccc(-n2c(=O)n(C3CC3)c(=O)c3c(Nc4ccc(I)cc4F)n(C)c(=O)c(C)c32)c1 [Trametinib] (partner 0.02 µM)"
cat = "n"

[[record]]
compound = "NC(=O)Nc1cc(-c2cccc(F)c2)sc1C(=O)N[C@H]1CCCNC1 [AZD7762] + Cc1nc(NC(=O)N2CCC[C@H]2C(N)=O)sc1-c1ccnc(C(C)(C)C(F)(F)F)c1 [Alpelisib] (partner 2 µM)"
cat = "n"

[[record]]
compound = "NC(=O)Nc1cc(-c2cccc(F)c2)sc1C(=O)N[C@H]1CCCNC1 [AZD7762] + Cc1nc(Nc2ncc(C(=O)Nc3c(C)cccc3Cl)s2)cc(N2CCN(CCO)CC2)n1 [Dasatinib] (partner 0.075 µM)"
cat = "y"


====

system: HCC-366; experiment: relative viability (nuclei count vs DMSO), 5 days (fraction); higher = more cells survive; settings: first compound 1.265 µM
Note to self: use Met only for relative viability readings below 0.4; a reading exactly at 0.4 still gets Not met.

[[record]]
compound = "O=C(O)c1ccc(-c2c[nH]c3ncc(-c4ccccc4)cc23)cc1C1CCCC1 + Cc1nc(Nc2ncc(C(=O)Nc3c(C)cccc3Cl)s2)cc(N2CCN(CCO)CC2)n1 [Dasatinib] (partner 0.075 µM)"
cat = "Not met"

[[record]]
compound = "O=C(O)c1ccc(-c2c[nH]c3ncc(-c4ccccc4)cc23)cc1C1CCCC1 + NC(=O)Nc1cc(-c2cccc(F)c2)sc1C(=O)N[C@H]1CCCNC1 [AZD7762] (partner 0.2 µM)"
cat = "Not met"

[[record]]
compound = "O=C(O)c1ccc(-c2c[nH]c3ncc(-c4ccccc4)cc23)cc1C1CCCC1 + CS(=O)(=O)CCNCc1ccc(-c2ccc3ncnc(Nc4ccc(OCc5cccc(F)c5)c(Cl)c4)c3c2)o1 [Lapatinib] (partner 2 µM)"
cat = "Not met"

[[record]]
compound = "O=C(O)c1ccc(-c2c[nH]c3ncc(-c4ccccc4)cc23)cc1C1CCCC1 + O=C(c1cc(Cc2n[nH]c(=O)c3ccccc23)ccc1F)N1CCN(C(=O)C2CC2)CC1 [Olaparib] (partner 8 µM)"
cat = "Met"

[[record]]
compound = "O=C(O)c1ccc(-c2c[nH]c3ncc(-c4ccccc4)cc23)cc1C1CCCC1 + CC(C)C[C@H](NC(=O)[C@H](Cc1ccccc1)NC(=O)c1cnccn1)B(O)O [Bortezomib] (partner 0.002 µM)"
cat = "Not met"

[[record]]
compound = "O=C(O)c1ccc(-c2c[nH]c3ncc(-c4ccccc4)cc23)cc1C1CCCC1 + Cc1nc(NC(=O)N2CCC[C@H]2C(N)=O)sc1-c1ccnc(C(C)(C)C(F)(F)F)c1 [Alpelisib] (partner 2 µM)"
cat = "Met"

